TARGET_OR_SYSTEM: PRKAR2A
TEST_CONDITIONS: ASO; also: test concentration or dose not given here
These antisense oligonucleotides have a phosphorothioate backbone; sugars and methylation of C are not fully specified.
Assignment: determine reported remaining target (mRNA or protein) (fraction of control) for the given sequences.
One number for each entry.

{"columns": ["BIOSEQUENCE", "TARGET_OR_SYSTEM", "EXPERIMENTAL_VALUE"],
 "data": [
  ["CACACCTACTGCCCGAGGTT", "PRKAR2A", 0.38],
  ["ATCTGTATCTTCCTCTTCCT", "PRKAR2A", 0.73],
  ["CGCACGGCCCCGGCTCACGT", "PRKAR2A", 0.68],
  ["CTGGATGTGGCTCATGCCGG", "PRKAR2A", 0.52]
]}

Record remaining target (mRNA or protein) (fraction of control) for all entries; do not skip any.
1. ATAACTAAGCATTTGACATC
2. GGATCTGGATGTGGCTCATG
3. TGCAGCAGCTCCGTGAGCCC
4. TGAGTGATTATGCGTTCTCC
5. TTTGTTGGTGACCAGGGCAA
6. GAGAGACATGCCGTTTTGAA
7. GCGCAACCCTACGCTACCAC

[0.94, 0.71, 0.57, 0.8, 0.6, 0.51, 0.53]

Record remaining target (mRNA or protein) (fraction of control) for all entries; do not skip any.
1. CTCATGCCGGCGGCGGCCGA
2. GGGTGTTGTACATCAGAGCT
3. CAATGACATGCTCATCAGCT

[0.96, 0.87, 0.74]

Record remaining target (mRNA or protein) (fraction of control) for all entries; do not skip any.
1. CCATGCAGGGCCCCAGAAGC
2. GCATGTTTATACTTTGGACT
3. CAGGAACAGTTCTGTCATGT
4. AGGCGGGTGAAGTACTCCAC
5. ATCTGGATGTGGCTCATGCC

1: 0.52; 2: 0.83; 3: 0.65; 4: 0.46; 5: 0.82

Record remaining target (mRNA or protein) (fraction of control) for all entries; do not skip any.
1. GCGGCCACTGTCTCCGCGCT
2. CTAGGAACTGGAACTTCCAA
3. GCAGCGGGCAATCTCGACCT
4. TTCTAAAAGTCACCCGGTCC
5. TTTAGTCCTGCTTCTAATCA

[0.67, 0.91, 0.5, 0.39, 0.73]

###

TARGET_OR_SYSTEM: E2F1
TEST_CONDITIONS: ASO
These antisense oligonucleotides have a phosphorothioate backbone; sugars and methylation of C are not fully specified.
Lab note: anything with remaining target (mRNA or protein) (fraction of control) below 0.6 is marked TRUE; values at 0.6 or higher are marked FALSE.

Example entries begin here.
{"columns": ["BIOSEQUENCE", "QUALITATIVE_LABEL"],
 "data": [
  ["AAGCCTCCCCACCTGGCCTG", "TRUE"],
  ["GGCCGAAAGTGCAGTTAGAG", "FALSE"],
  ["GGAGGACGGCCAGGGACAGG", "FALSE"],
  ["CTTCATTCCCCGGTACATGC", "FALSE"],
  ["GGTCCAGCCTCCGCTTCACC", "TRUE"],
  ["CTCAGAAGTGACCTCCTGGG", "FALSE"],
  ["GCGGCCCGGGTGACAGGCGG", "TRUE"],
  ["ACCTCGGCAGCCCAGTTCAG", "FALSE"]
]}

Please determine if `GCAGGCGCTTCAGACACTGC` is below 0.6 in terms of remaining target (mRNA or protein) (fraction of control).
TRUE

Please determine if `AGAAGTCCTCCCGCACATGC` is below 0.6 in terms of remaining target (mRNA or protein) (fraction of control).
TRUE

Please determine if `AAGCCCTGTCAGAAATCCAG` is below 0.6 in terms of remaining target (mRNA or protein) (fraction of control).
TRUE

Please determine if `GGGCCGGTGGGAGCCGGCGG` is below 0.6 in terms of remaining target (mRNA or protein) (fraction of control).
TRUE

Please determine if `CCTCGGCGAGGGCTCGATCC` is below 0.6 in terms of remaining target (mRNA or protein) (fraction of control).
FALSE

Please determine if `TTTAACGTCATCAAAATATT` is below 0.6 in terms of remaining target (mRNA or protein) (fraction of control).
FALSE

Please determine if `AACCCCACACCCCTCCTCCC` is below 0.6 in terms of remaining target (mRNA or protein) (fraction of control).
FALSE
